System: Fibroblast
Assay: Incucyte cell viability with human fibroblast; further: unitless GR value; below 1 slowed growth and below 0 cell loss
Format: toxicity, cell-based
Conditions: 12 h, 10 µM, compound concentration 10 uM, replicate number 2, timepoint 12 hours
Assay metric: Growth Rate

compound=COc1ccc2cc(S(=O)(=O)N[C@H](CC(=O)N[C@H](Cc3ccc(CN4[C@H](C)CCC[C@@H]4C)cc3)C(=O)N(C)C(C)C)c3ccc4c(c3)OCO4)ccc2c1.Cl reported_value=-0.1
compound=CCCCOCCOc1nc(-c2ccc(C(=O)O)c(F)c2)sc1C reported_value=0.63
compound="CO/C1=C/C(C)=C\\[C@@H](C)[C@@H](O)[C@@H](C)C/C(C)=C\\C=C/[C@H](OC)C([C@@H](C)[C@@H](O)[C@H](C)[C@@]2(O)C[C@@H](O)[C@H](C)[C@@H](C(C)C)O2)OC1=O (stereo partly drawn)" reported_value=-0.56

###

Test system: Fibroblast
Assay: Incucyte cell viability with human fibroblast; further: unitless GR value; below 1 slowed growth and below 0 cell loss
Type: toxicity, cell-based
Conditions: 24 h, 10 µM, compound concentration 10 uM, replicate number 1, timepoint 24 hours
Collected Growth Rate values appear next to each entry.
Assay metric: Growth Rate

compound=O=C(Nc1cc(C(F)(F)F)ccc1N1CCN(Cc2ccccn2)CC1)c1ccc(-c2ccncc2)o1 assay_target=Fibroblast assay_metric="Growth Rate" reported_value=0.21
compound="CN(C)C/C=C/C(=O)Nc1ccc(C(=O)N2CCCC(Nc3ncc(Cl)c(-c4c[nH]c5ccccc45)n3)C2)cc1 (centres undefined)" assay_target=Fibroblast assay_metric="Growth Rate" reported_value=-0.55
compound=O=C(O)COc1cccc(-c2ocnc2-c2nc(-c3ccccc3)c(-c3ccccc3)o2)c1 assay_target=Fibroblast assay_metric="Growth Rate" reported_value=0.59
compound=Cc1sc2c(c1C)C(c1ccc(Cl)cc1)=N[C@H](CC(=O)OC(C)(C)C)c1nnc(C)n1-2 assay_target=Fibroblast assay_metric="Growth Rate" reported_value=0.98
compound=Cn1cc(-c2ccc3occ(-c4cccc(-c5ccncc5)c4)c3n2)cn1 assay_target=Fibroblast assay_metric="Growth Rate" reported_value=-0.84
compound=Cc1cc(C)cc([C@H]2c3cc(C)ccc3NC(=O)CN2C(=O)c2ccc(Br)s2)c1 assay_target=Fibroblast assay_metric="Growth Rate" reported_value=0.33
compound=CCc1nnc(NS(=O)(=O)c2ccc(NC(=S)NC(=O)/C=C/c3ccc(F)cc3)cc2)s1 assay_target=Fibroblast assay_metric="Growth Rate" reported_value=0.62
compound=C[C@]1(O)CC[C@H]2[C@@H]3CCC4=CC(=O)CCC4=C3C=C[C@@]21C assay_target=Fibroblast assay_metric="Growth Rate" reported_value=0.98
compound=COc1cccc2c1c(NS(=O)(=O)c1ccc(Cl)s1)nn2Cc1cccc(CNC(=O)C(C)(C)O)c1 assay_target=Fibroblast assay_metric="Growth Rate" reported_value=0.53
compound=C[C@@H](OC[C@@]1(c2ccccc2)CC[C@]2(CCC(=O)N2)CN1)c1cc(C(F)(F)F)cc(C(F)(F)F)c1 assay_target=Fibroblast assay_metric="Growth Rate" reported_value=0.27
compound=Nc1ncnc2c1ncn2[C@@H]1O[C@H](CO)[C@@H](O)[C@H]1O assay_target=Fibroblast assay_metric="Growth Rate" reported_value=0.58
compound=Cc1cnc(CNCC2(F)CCN(C(=O)c3ccc(F)c(Cl)c3)CC2)nc1 assay_target=Fibroblast assay_metric="Growth Rate" reported_value=0.5
compound=COc1cc2nc(N3CCN(C(=O)COc4c(OC)cccc4C(C)C)CC3)nc(N)c2cc1OC.Cl.Cl assay_target=Fibroblast assay_metric="Growth Rate" reported_value=-0.65
compound=Cn1cc(C(=O)OCC2CCN(CCNS(C)(=O)=O)CC2)c2ccccc21 assay_target=Fibroblast assay_metric="Growth Rate" reported_value=0.43
compound=Cc1cc(C)cc(C(=O)NOCCCCCC(=O)NO)c1 assay_target=Fibroblast assay_metric="Growth Rate" reported_value=0.77
compound=CN(C)CCCc1cc(C(=O)Nc2ccc(-c3ccncc3)cc2)ccc1O.Cl.Cl assay_target=Fibroblast assay_metric="Growth Rate" reported_value=-0.07
compound=Cc1c(C(=O)NN2CCCCC2)nn(-c2ccc(Cl)cc2Cl)c1-c1ccc(Cl)cc1 assay_target=Fibroblast assay_metric="Growth Rate" reported_value=0.03
compound=Cc1cnc(-c2cc(N3CCN(C(=O)CCS(C)(=O)=O)CC3)ncc2Cl)c(C)c1 assay_target=Fibroblast assay_metric="Growth Rate" reported_value=0.94
compound=O=C(Nc1cc(-c2cn[nH]c2)ccc1N1CCOCC1)c1ccc(-c2ccc3ncccc3c2)o1 assay_target=Fibroblast assay_metric="Growth Rate" reported_value=0.3
compound=S=C(NCCCc1c[nH]cn1)NCCCN(Cc1ccc(Cl)c(Cl)c1)c1ccc(Br)cn1 assay_target=Fibroblast assay_metric="Growth Rate" reported_value=-0.16
compound="CCn1c(-c2nc3cc(C(=O)N4CCCC(N)C4)ccc3n2C)cc2ccccc21.Cl (centres undefined)" assay_target=Fibroblast assay_metric="Growth Rate" reported_value=0.15
compound="Cl.N=C(N)NC(=O)Cc1c(Cl)cccc1Cl [GUANFACINE HYDROCHLORIDE]" assay_target=Fibroblast assay_metric="Growth Rate" reported_value=0.38
compound=CC1(C)SSC(C)(C)[C@@H](NC(=O)[C@@H](N)Cc2ccc(O)cc2)C(=O)NCC(=O)N[C@@H](Cc2ccccc2)C(=O)N[C@H]1C(=O)O.O=C(O)C(F)(F)F assay_target=Fibroblast assay_metric="Growth Rate" reported_value=0.94
compound=CN(C)C(=O)Cn1cc(-c2ccc(-c3cncc4ccccc34)cc2)cn1 assay_target=Fibroblast assay_metric="Growth Rate" reported_value=0.05
compound=O=C1c2c(Br)c(Br)c(Br)c(Br)c2C(=O)N1c1ncc[nH]1 assay_target=Fibroblast assay_metric="Growth Rate" reported_value=0.65
compound=CN(C)C(=O)N1CC[C@H](NC2=Nc3cc(F)ccc3N(CC(F)F)c3ccc(Cl)cc32)C1 assay_target=Fibroblast assay_metric="Growth Rate" reported_value=0.32
compound=CCc1cc2c(cc1-c1cccc(S(=O)(=O)F)c1)C(C)(C)c1[nH]c3cc(C#N)ccc3c1C2=O assay_target=Fibroblast assay_metric="Growth Rate" reported_value=-0.18
compound=O=C(N[C@@H]1CC[C@@H](c2cccc(F)c2F)CN(CC(F)(F)F)C1=O)N1CCC(n2c(=O)[nH]c3ncccc32)CC1 assay_target=Fibroblast assay_metric="Growth Rate" reported_value=0.22
compound=CN[C@@H](C)C(=O)N[C@H]1CCCC[C@H]2CC[C@@H](C(=O)N[C@@H](c3ccccc3)c3cn(CCCCc4ccc(CCCCn5cc([C@@H](NC(=O)[C@@H]6CC[C@@H]7CCCC[C@H](NC(=O)[C@H](C)NC)C(=O)N76)c6ccccc6)nn5)cc4)nn3)N2C1=O assay_target=Fibroblast assay_metric="Growth Rate" reported_value=0.71
compound=CC[C@H](NC(=O)c1c(C)c(-c2ccccc2)nc2ccccc12)c1ccccc1 assay_target=Fibroblast assay_metric="Growth Rate" reported_value=0.67
compound=O=C(O)CCC/C=C\C[C@H]1C(=O)C[C@@H](O)[C@@H]1/C=C/[C@@H](O)CCc1ccccc1 assay_target=Fibroblast assay_metric="Growth Rate" reported_value=0.66
compound=O=C1NCc2ccc3c(-c4cccc(Cl)c4)c[nH]c3c21 assay_target=Fibroblast assay_metric="Growth Rate" reported_value=-0.39
compound=Cc1cc(OCCCS(C)(=O)=O)cc(C)c1-c1cccc(COc2ccc3c(c2)OC[C@H]3CC(=O)O)c1 assay_target=Fibroblast assay_metric="Growth Rate" reported_value=0.78
compound=CCCCC1=NC2(CCCC2)C(=O)N1Cc1ccc(-c2ccccc2-c2nnn[nH]2)cc1 assay_target=Fibroblast assay_metric="Growth Rate" reported_value=0.09

###

System: U2OS
Assay: Incucyte cell viability with U2OS; further: unitless GR value; below 1 slowed growth and below 0 cell loss
Assay type: toxicity, cell-based
Details: human, 12 h, 10 µM, compound concentration 10 uM, replicate number 2, timepoint 12 hours
Where a SMILES comes first, the peptide text is derived from it. Bridges are numbered along the chain shown (N, C = ends). [ ]: non-standard residue; d: D form. Orn = NCCC[C@H](N)C(=O)O; Mpa = O=C(O)CCS
Collected Growth Rate values appear next to each entry.
Assay metric: Growth Rate

compound=N#Cc1c(Oc2cccc(OS(=O)(=O)CCCC(F)(F)F)c2)cccc1C(F)(F)F assay_metric="Growth Rate" reported_value=0.82
compound=O=C(O)c1nc2ccccc2c2[nH]c3c(I)cccc3c12 assay_metric="Growth Rate" reported_value=0.85
compound=CN1CCN(c2cc(-c3ccccc3)nc(N)n2)CC1 assay_metric="Growth Rate" reported_value=0.96
compound=CC(C)n1cnc2c(Nc3cccc(Cl)c3)nc(N[C@H]3CCCC[C@@H]3N)nc21 assay_metric="Growth Rate" reported_value=0.04
compound="COC(=O)[C@H]1[C@H]2C[C@H]3c4[nH]c5ccccc5c4CCN3C[C@H]2CC[C@@H]1O.Cl [RAUWOLSCINE HYDROCHLORIDE]" assay_metric="Growth Rate" reported_value=0.89
compound="COc1ccc2c(c1)C(C(=O)N(Cc1ccc(N(C)C)cc1)c1ccc(C(C)C)cc1)CCC2.Cl (centres undefined)" assay_metric="Growth Rate" reported_value=0.84
compound="COC[C@@H](c1ccc(C(F)(F)F)cc1)N1CCN(C2(C)CCN(C(=O)c3c(C)ncnc3C)CC2)C[C@@H]1C.O=C(O)/C=C\\C(=O)O [VICRIVIROC MALEATE]" assay_metric="Growth Rate" reported_value=0.98
compound="CCN(Cc1ccncc1)C(=O)C(CO)c1ccccc1 (centres undefined) [TROPICAMIDE]" assay_metric="Growth Rate" reported_value=0.99
compound="CC[S+]([O-])c1nc(-c2cccc(OCc3ccccc3)c2)cc(C(F)(F)F)n1 (centres undefined)" assay_metric="Growth Rate" reported_value=-0.16
compound=COc1ccc2nc3ccc(OC)cc3c(SCCCN)c2c1.Cl assay_metric="Growth Rate" reported_value=0.2
compound=COc1c(C)cc(NC(=O)c2nn(Cc3ccc(F)cc3)c3c2CN(C(=O)c2ccc[nH]2)C[C@]3(C)C(N)=O)cc1C assay_metric="Growth Rate" reported_value=0.68
compound=Cl.FC(F)(F)c1ccc(N2CCNCC2)nc1Cl assay_metric="Growth Rate" reported_value=0.78
compound=O=C1NC(Nc2ccccc2)=N/C1=C\c1ccc2c(c1)OCO2 assay_metric="Growth Rate" reported_value=0.66
compound=O=c1c2cccn2c2ccccc2n1CCCN1CCC(c2ccc(Cl)cc2)CC1 assay_metric="Growth Rate" reported_value=0.89
compound=CC(C)(O)C(=O)N1CCN(c2ccc(C(F)(F)F)c(C3=C(c4c[nH]c5ccccc45)C(=O)NC3=O)c2)CC1 assay_metric="Growth Rate" reported_value=0.78
compound=CN(c1ncccc1CNc1ccnc(-c2nc3c(F)c(Cl)ccc3[nH]2)n1)S(C)(=O)=O assay_metric="Growth Rate" reported_value=0.66
compound=COc1ccc(C(=O)N2CCN(C(=O)/C=C/c3ccc(Br)cc3)CC2)cc1 assay_metric="Growth Rate" reported_value=0.72
compound="CC(C)CC(=O)Nc1cncc(-c2ccc3[nH]nc(-c4nc5c(-c6cccc(F)c6)cncc5[nH]4)c3c2)c1 [LORECIVIVINT]" assay_metric="Growth Rate" reported_value=0.32
compound=Cc1nn(C)c(C)c1-c1cccc2c1CC[C@H](N(C)C)C2 assay_metric="Growth Rate" reported_value=0.8
compound="C[C@]1(O)CC[C@H]2[C@@H]3CCC4=CC(=O)CCC4=C3C=C[C@@]21C [METRIBOLONE]" assay_metric="Growth Rate" reported_value=0.92
compound=O=C1NCc2ccc3c(-c4cccc(Cl)c4)c[nH]c3c21 assay_metric="Growth Rate" reported_value=-0.24
compound="CCCCCCNC(=O)Nc1ccc(S(=O)(=O)Nc2ccc(CCNC[C@H](O)COc3ccc(O)cc3)cc2)cc1 [L-755507]" assay_metric="Growth Rate" reported_value=0.7
compound="Cc1nccc(COC(=O)N2C[C@@H]3[C@@H](CNC(=O)c4ccc5[nH]nnc5c4)[C@@H]3C2)n1 [BI 3017]" assay_metric="Growth Rate" reported_value=0.9
compound=O=C(NCCO)c1cccc(-c2cc(Nc3ccc(OC(F)(F)F)cc3)ncn2)c1 assay_metric="Growth Rate" reported_value=0.83
compound=NCCc1cn(S(=O)(=O)c2c(Cl)nc3sccn23)c2ccccc12.O=C(O)C(=O)O assay_metric="Growth Rate" reported_value=0.36
compound=Cc1noc(-c2ccc(-c3ccc(CC(=O)O)cc3)cc2)c1NC(=O)O[C@H](C)c1ccccc1Cl assay_metric="Growth Rate" reported_value=0.92
compound="CCC(=O)N1CC[C@H](Nc2ncnc3c2CN(c2cnc(OC)c(C(F)(F)F)c2)CC3)C1 [LENIOLISIB]" assay_metric="Growth Rate" reported_value=0.58
compound="CC[C@H](NC(=O)c1c(C)c(-c2ccccc2)nc2ccccc12)c1ccccc1 [SB-222200]" assay_metric="Growth Rate" reported_value=0.93
compound="CCOc1ccc(C[C@H]2NC(=O)CCSSC[C@@H](C(=O)N3CCC[C@H]3C(=O)N[C@@H](CCCN)C(=O)NCC(N)=O)NC(=O)[C@H](CC(N)=O)NC(=O)[C@H]([C@@H](C)O)NC(=O)[C@H]([C@@H](C)CC)NC2=O)cc1 [ATOSIBAN] ([Mpa][dY](Et)ITNCP[Orn]G-NH2; disulfide 1-6)" assay_metric="Growth Rate" reported_value=0.97
compound=O=C(O)c1ccccc1S(=O)(=O)NCCCCN1C(=O)c2cccc3cccc(c23)C1=O assay_metric="Growth Rate" reported_value=0.64
compound="CNC(=O)c1nn(C)c2c1C(C)(C)Cc1cnc(Nc3ccc(N4CCN(C)CC4)cc3)nc1-2 [MILCICLIB]" assay_metric="Growth Rate" reported_value=0.29
compound=CC#C[C@@H](CC(=O)O)c1ccc(OCc2cccc(-c3ccc(C(F)(F)F)cc3)c2)cc1 assay_metric="Growth Rate" reported_value=0.96
compound=COc1ccccc1N1CCN(CCCCNC(=O)c2ccc3ccccc3c2)CC1.Cl assay_metric="Growth Rate" reported_value=0.96
compound=Nc1nccc(-c2ccn3c(N)nccc23)n1 assay_metric="Growth Rate" reported_value=0.92

Every entry's value here was drawn from ChEMBL document CHEMBL5058564.
